Biological target: T1, 4H2627-bN
T1 chain: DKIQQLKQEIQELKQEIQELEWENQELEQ
Test: two-hybrid library CCNG1;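 also: natural log of median RNA to DNA barcode read ratio; higher means stronger binding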
OBSERVED PROPERTY: interaction score

Some solved cases for reference:
BINDER	OBSERVED PROPERTY	RESULT
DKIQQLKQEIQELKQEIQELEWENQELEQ [4H2627-bN]	interaction score	-1.18
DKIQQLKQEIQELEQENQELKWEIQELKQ [4H2586-bN]	interaction score	-0.115
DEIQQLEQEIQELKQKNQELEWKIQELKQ [4H118-bN]	interaction score	0.463
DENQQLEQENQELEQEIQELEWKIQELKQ [4H1158-bN]	interaction score	-1.89
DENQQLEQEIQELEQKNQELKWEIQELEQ [4H1081-bN]	interaction score	-0.602

Ask: For the binder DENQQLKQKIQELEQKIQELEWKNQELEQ [4H1831-bN] , give its measured interaction score value.
Reply: 1.7

Ask: Identify measured interaction score corresponding to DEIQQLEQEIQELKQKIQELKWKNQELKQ [4H112-bN]
Reply: 1.22

Ask: In one line, give reported interaction score of the entry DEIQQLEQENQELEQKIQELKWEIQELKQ [4H170-bN] .
Reply: -1.42
